This listing pairs compounds with measured IC50.
Target system: UniProt O60341
Protocol details: Inhibition of recombinant LSD1 (unknown origin) (catalytic domain 157 to 852 residues) expressed in Escherichia coli BL21 using H3K4me1 as substrate incubated for 1 hr by horse-radish peroxidase/amplex red-based fluorescence method

Compound | Target system | IC50
C=C1C(=O)OCC1C(O)c1cn(Cc2cncc(C)c2)c2ccc(Cl)cc12 (stereo not given) | UniProt O60341 | > 10 µM
C=C1C(=O)OCC1C(O)c1cn(Cc2nc3ccccc3s2)c2ccc(Cl)cc12 (stereo not given) | UniProt O60341 | > 10 µM
CC1=CCSC1C(=O)c1cn(Cc2ccc(F)cc2)c2ccc(Cl)cc12 (stereo not given) | UniProt O60341 | > 10 µM
C=C1C(=O)OCC1C(O)c1cn(C(=O)/C=C/c2ccccc2)c2ccc(Cl)cc12 (stereo not given) | UniProt O60341 | > 10 µM
C=C1C(=O)OCC1C(O)c1cn(Cc2csc(N)n2)c2ccc(Cl)cc12 (stereo not given) | UniProt O60341 | > 10 µM
C=C1C(=O)OCC1C(O)c1cn(Cc2ccc(Cl)cc2)c2ccc(Cl)cc12 (stereo not given) | UniProt O60341 | > 10 µM
C=C1C(=O)OCC1C(O)c1cn(C(=O)c2ccco2)c2ccc(Cl)cc12 (stereo not given) | UniProt O60341 | > 10 µM
C=C1C(=O)OCC1C(O)c1cn(C(=O)c2cccnc2Cl)c2ccc(Cl)cc12 (stereo not given) | UniProt O60341 | > 10 µM
C=C1C(=O)OCC1C(O)c1cn(Cc2ccc(Cl)cc2)c2ccc(F)cc12 (stereo not given) | UniProt O60341 | > 10 µM

Next compound, please.
Q: Look at this compound and give its reported IC50. C=C1C(=O)OCC1C(O)c1cn(C(=O)C2CC2)c2ccc(Cl)cc12 (stereo not given)
A: > 10 µM

====

Tested on: THP-1
Protocol details: Antiproliferative activity against human THP1 cells assessed as reduction in cell viability incubated for 5 days by MTT assay
Condition description: THP-1, 120 h
Property: IC50 (µM)
Return type: number; implicit unit µM.

Q: Endpoint output: IC50 of C=C1C(=O)OCC1C(O)c1cn(Cc2ccc(F)cc2)c2ccc(Cl)cc12 (stereo unspecified) . Value?
A: 1.2
